# ASSAY_INFO: GLP 28-day oral toxicity and toxicokinetics study
# Type: in vivo, Beagle dogs
# EXPERIMENTAL_CONTEXT: male, Beagle, dog, in vivo, po, 500 mg/kg/day, Cmax
ASSAY_METRIC: Cmax (ng/mL)
# unit: ng/mL | format: bare number

Data request, read-out Cmax, for NS(=O)(=O)c1ccc(Nc2ncc3cc4n(c3n2)C2(CCCCC2)C(=O)NN4)cc1 [Compound I]
1220

---

# ASSAY_INFO: GLP 28-day oral toxicity and toxicokinetics study
# Type: in vivo, Beagle dogs
# EXPERIMENTAL_CONTEXT: female, Beagle, dog, in vivo, po, 250 mg/kg, plasma AUC0-24
ASSAY_METRIC: AUC(0-t) (ng·h/mL)
# unit: ng·h/mL | format: bare number

Data request, read-out AUC(0-t), for NS(=O)(=O)c1ccc(Nc2ncc3cc4n(c3n2)C2(CCCCC2)C(=O)NN4)cc1
11700

---

# TARGET_OF_ASSAY: CYP2C19 (Homo sapiens, UniProt P33261)
# Construct: human liver microsomes were incubated in the appropriate isoform-specific probe substrate; from tissue; host or cells: human liver microsomes
# Sequence (P33261 whole entry, canonical isoform): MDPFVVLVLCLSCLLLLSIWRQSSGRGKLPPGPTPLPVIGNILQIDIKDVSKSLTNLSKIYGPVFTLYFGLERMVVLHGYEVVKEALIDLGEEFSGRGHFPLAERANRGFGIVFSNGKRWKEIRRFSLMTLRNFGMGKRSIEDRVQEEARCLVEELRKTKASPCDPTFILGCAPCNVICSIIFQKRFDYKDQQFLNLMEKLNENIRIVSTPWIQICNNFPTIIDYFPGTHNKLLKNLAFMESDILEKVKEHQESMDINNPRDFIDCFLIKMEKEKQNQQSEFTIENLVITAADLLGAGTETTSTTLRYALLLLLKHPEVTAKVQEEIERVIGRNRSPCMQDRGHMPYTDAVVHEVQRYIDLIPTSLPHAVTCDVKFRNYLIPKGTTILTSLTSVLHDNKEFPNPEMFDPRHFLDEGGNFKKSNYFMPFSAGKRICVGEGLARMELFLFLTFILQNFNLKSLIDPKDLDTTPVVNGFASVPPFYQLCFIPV
# ASSAY_INFO: CYP inhibition in human liver microsomes
# Type: in vitro ADME
# EXPERIMENTAL_CONTEXT: pH 7.4, probe mephenytoin; CYP2C19, substrate Mephenytoin, human liver microsomes
ASSAY_METRIC: IC50 (µM)
# unit: µM | format: bare number

Data request, read-out IC50, for NS(=O)(=O)c1ccc(Nc2ncc3cc4n(c3n2)C2(CCCCC2)C(=O)NN4)cc1
25

---

# TARGET_OF_ASSAY: human OATP1B3 (Homo sapiens, UniProt Q9NPD5)
# Construct: expressed in transfected cells; host or cells: HEK293
# Sequence (Q9NPD5 whole entry): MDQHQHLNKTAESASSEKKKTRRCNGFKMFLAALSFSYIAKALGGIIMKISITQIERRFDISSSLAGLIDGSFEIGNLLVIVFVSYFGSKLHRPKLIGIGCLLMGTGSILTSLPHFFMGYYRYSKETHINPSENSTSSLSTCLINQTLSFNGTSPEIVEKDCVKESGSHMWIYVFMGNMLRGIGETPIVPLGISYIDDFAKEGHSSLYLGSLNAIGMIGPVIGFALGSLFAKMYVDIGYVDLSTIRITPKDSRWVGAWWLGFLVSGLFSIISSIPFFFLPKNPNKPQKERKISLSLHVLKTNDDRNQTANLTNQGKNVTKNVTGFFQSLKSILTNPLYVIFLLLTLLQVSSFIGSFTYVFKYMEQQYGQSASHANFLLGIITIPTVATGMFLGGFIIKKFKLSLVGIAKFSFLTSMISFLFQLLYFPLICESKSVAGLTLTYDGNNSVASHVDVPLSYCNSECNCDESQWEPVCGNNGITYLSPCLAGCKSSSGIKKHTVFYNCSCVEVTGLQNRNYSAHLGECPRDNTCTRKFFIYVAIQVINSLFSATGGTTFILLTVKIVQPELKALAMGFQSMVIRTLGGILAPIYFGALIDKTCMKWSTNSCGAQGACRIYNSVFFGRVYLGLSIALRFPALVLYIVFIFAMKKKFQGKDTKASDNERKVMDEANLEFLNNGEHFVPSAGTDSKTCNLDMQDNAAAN
# ASSAY_INFO: SLC transporter inhibition in HEK293 cells
# Format: in vitro ADME
# EXPERIMENTAL_CONTEXT: read-out: OATP1B3 IC50
ASSAY_METRIC: IC50 (µM)
# unit: µM | format: bare number

Data request, read-out IC50, for NS(=O)(=O)c1ccc(Nc2ncc3cc4n(c3n2)C2(CCCCC2)C(=O)NN4)cc1
6.22

---

# ASSAY_INFO: Nonclinical pharmacokinetics (IV and PO)
# EXPERIMENTAL_CONTEXT: dog, in vivo, iv; dogs; read-out: Tmax after IV dosing
ASSAY_METRIC: Tmax

Data request, read-out Tmax, for NS(=O)(=O)c1ccc(Nc2ncc3cc4n(c3n2)C2(CCCCC2)C(=O)NN4)cc1
≤ 15 min

---

# ASSAY_INFO: GLP 28-day oral toxicity and toxicokinetics study
# Format: in vivo, Sprague Dawley rats
# EXPERIMENTAL_CONTEXT: female, Sprague Dawley, rat, in vivo, po, 300 mg/kg/day, t1/2
ASSAY_METRIC: half-life (h)
# unit: h | format: bare number

Data request, read-out half-life, for NS(=O)(=O)c1ccc(Nc2ncc3cc4n(c3n2)C2(CCCCC2)C(=O)NN4)cc1
3.98

---

# ASSAY_INFO: GLP 28-day oral toxicity and toxicokinetics study
# Format: in vivo, Beagle dogs
# EXPERIMENTAL_CONTEXT: male, Beagle, dog, in vivo, po, 500 mg/kg/day, Tmax
# Experimental: Nominal dose values and sampling times were used for calculations. Any concentration reported as BLQ (LLOQ<1.0 ng/mL) was set equal to zero. Toxicokinetic analyses included Cmax, Tmax, AUC0-24, t1/2, RA Cmax, and RA AUC0-24. Forty (20 per sex) Beagle dogs were randomly assigned to groups and dosed twice daily (approximately 8 hours+1-hour apart) via oral gavage for 28 consecutive days. […]
ASSAY_METRIC: Tmax (h)
# unit: h | format: bare number

Data request, read-out Tmax, for NS(=O)(=O)c1ccc(Nc2ncc3cc4n(c3n2)C2(CCCCC2)C(=O)NN4)cc1 [Compound I]
14
